Tested on: Huh7 cells
ASSAY COMMENT: TC50 MTS cell viability assay with Huh7 cells (48 h)
Type: cell-based
CONDITION NOTES: Homo sapiens, Huh-7
ATTRIBUTE MEASURED: log10 of CC50 (log10 of the value in µM)
Hello, just confirming the data are log10 of CC50 with units of µM.

COMPOUND	log10 of CC50
O=C(Nc1ccn([C@@H]2O[C@H](CO)C(O)C2(F)F)c(=O)n1)c1ccc2c(c1)OC(F)(F)O2 (stereo partly drawn)	2.27
CC1(C)Cc2ccc(C(=O)Nc3ccn([C@@H]4O[C@H](CO)C(O)C4(F)F)c(=O)n3)cc2O1 (stereo partly drawn)	3.06
O=C(Nc1ccn(C2O[C@H](CO)[C@@H](O)C2(F)F)c(=O)n1)c1ccc2c(c1)OCCO2 (stereo partly drawn)	2.93
O=C(Nc1ccn([C@@H]2O[C@H](CO)C(O)C2(F)F)c(=O)n1)c1ccc2c(c1)OCCCO2 (stereo partly drawn)	2.94
O=C(Nc1ccn([C@@H]2O[C@H](CO)C(O)C2(F)F)c(=O)n1)c1ccc2c(c1)CCO2 (stereo partly drawn)	2.98

Exam item: Returns the measured log10 of CC50 for the input compound. Input: O=C(Nc1ccn(C2O[C@H](CO)[C@@H](O)C2(F)F)c(=O)n1)c1ccc2c(c1)OCO2 (stereo partly drawn)
Marked response: 2.67

Exam item: Returns the measured log10 of CC50 for the input compound. Input: O=C(Nc1ccn([C@@H]2O[C@H](CO)C(O)C2(F)F)c(=O)n1)c1c(Br)ccc2c1OCO2 (stereo partly drawn)
Marked response: 3.34

Exam item: Returns the measured log10 of CC50 for the input compound. Input: Cc1cc2c(cc1C(=O)Nc1ccn([C@@H]3O[C@H](CO)C(O)C3(F)F)c(=O)n1)OCCO2 (stereo partly drawn)
Marked response: 2.80

These measurements were taken from patent US10000521B2.
